The values you see were collected from PubChem BioAssay.

EXPERIMENT_DESCRIPTION: probe aEGFR binding to arrayed compounds – biochemical, biotinylated probe, 635/667 nm fluorescence, primary screen (AID 1097);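 further: probe is a biotinylated anti-EGFR antibody binding compounds printed on slides; score combines fluorescence near 667 nm and signal to noise of each spot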
COND: small-molecule microarray, higher = more signal
Label Yes when composite z-score >= -0.003; otherwise No.

COMPOUND	ASSIGNED_CATEGORY
CC(C)[Si](C#C[Si](C(C)C)(C(C)C)C(C)C)(O[C@H](c1ccccc1)c1cn(Cc2ccccc2)nn1)C(C)C	Yes
NC(=O)NCC#Cc1ccc2c(c1)[C@]1(C(=O)N2)[C@H](C(=O)N2CCN(c3ncccn3)CC2)[C@H]2C(=O)O[C@H](c3ccccc3)[C@H](c3ccccc3)N2[C@@H]1c1ccc(O)cc1	Yes
CC(C)N1C(=O)C[C@@](C(=O)O)(c2ccc([N+](=O)[O-])cc2)[C@H]1c1ccc(CO)cc1	No
COC(=O)[C@@]1(Cc2ccc(F)cc2)[C@H]2c3cc(C(=O)N(C)C)n(Cc4ccc(OC(F)(F)F)cc4)c3C[C@H]2CN1C(=O)c1ccccc1	Yes
CC(C)c1ccc(NN2C(C(O)c3ccc(F)cc3)C=CC3C(=O)N(c4ccccc4)C(=O)C32)cc1 (stereo not drawn)	Yes
COCCOC(=O)N1C(=O)[C@@]2(c3cc(C#CC4=CCCCC4)ccc31)[C@H](c1ccccc1OCCO)N1[C@H](c3ccccc3)[C@H](c3ccccc3)OC(=O)[C@H]1[C@@H]2C(=O)N1CCN(c2ncccn2)CC1	No
C=CC[C@@]1(C(=O)NCCCOC)N=C(c2ccc(OCCCO)cc2)O[C@@H]1c1ccccc1N=[N+]=[N-]	No
COc1ccc(C(=O)Nc2ccc(CN3C(=O)[C@]4(O[C@H](CC(=O)N5Cc6ccccc6C[C@H]5CO)[C@@H]([Si](C)(C)c5ccc(OC)cc5)[C@@H]4C)c4ccccc43)cc2)cc1	No
COCCCNC(=O)[C@@H]1c2ccccc2C(=O)N(C(C)C)[C@H]1c1ccc(CO)cc1	No
O=C1OCCC=C[C@H]2OC34C=CCN(Cn5nnc6ccccc65)C(=O)[C@H]3N(CCCO)C(=O)[C@@H]4C12 (stereo partly drawn)	No
Cc1ccc(S[C@]2(C(=O)NCCN3CCOCC3)CC(=O)N(Cc3ccccc3Cl)[C@@H]2c2ccc(CO)cc2I)cc1	No
COc1cccc(C)c1NC(=O)O[C@H]1[C@H](OC(=O)Nc2ccc3c(c2)OCO3)[C@@H](OC(=O)Nc2ccc3c(c2)OCO3)[C@@H](OC)O[C@@H]1CO	No
CCOC(=O)C[C@H]1[C@H](OC(=O)c2ccc(C(=O)c3ccccc3)cc2)[C@@H](NC(=O)CC(C)C)c2cc(OCCCO)ccc2N1C(=O)c1ccccc1	Yes

====

Test system: Wnt5a (protein binding on small-molecule microarray)
EXPERIMENT_DESCRIPTION: small molecules binding Wnt5a protein – biophysical, small-molecule microarray, 635/667 nm fluorescence, primary screen (AID 1142);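 further: fluorescence read at 667 nm with signal to noise per printed feature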
COND: 635 nm fluorescence, higher = more signal
Let's look at some compounds and their measured composite z-score.
MEASURE: composite z-score

COMPOUND	MEASURE	RECORDED_RESULT
COc1cccc(C)c1NC(=O)O[C@H]1[C@H](OC(=O)Nc2ccc3c(c2)OCO3)[C@@H](OC(=O)Nc2ccc3c(c2)OCO3)[C@@H](OC)O[C@@H]1CO	composite z-score	0.648
CC1CC/C=C\[C@H]2OC34C=CCN(c5ccc(Cl)cc5)C(=O)[C@H]3N(C(C)CO)C(=O)[C@]4(C)C2C(=O)O1 (stereo partly specified)	composite z-score	-0.304
Cc1ccc(C(C)CC(O)C2C=CC3C(=O)N(c4ccccc4)C(=O)C3N2Nc2ccccc2)o1 (stereo unspecified)	composite z-score	0.158
COc1ccccc1CN1C(=O)c2ccccc2[C@](Cc2ccccc2I)(C(=O)O)[C@@H]1c1ccc(CO)cc1	composite z-score	0.638
CCOc1cc(C(O)C2C=CC3C(=O)NC(=O)C3N2Nc2ccc(Cl)cc2Cl)ccc1O (stereo unspecified)	composite z-score	-0.0753
COCCCNC(=O)[C@@H]1c2ccccc2C(=O)N(C(C)C)[C@H]1c1ccc(CO)cc1	composite z-score	0.389
COc1ccc([Si](C)(C)[C@@H]2[C@@H](CCO)O[C@]3(C(=O)N(Cc4cccc(NC(=O)[C@H](C)O)c4)c4ccccc43)[C@H]2C)cc1	composite z-score	0.736
CCOC(=O)C[C@H]1[C@H](OC(=O)Cc2ccc3c(c2)OCO3)[C@@H](NC(=O)c2ccc3ccccc3n2)c2cc(OCCCO)ccc2N1C(=O)c1ccccc1	composite z-score	0.151
O=C1C[C@]2(c3ccc([N+](=O)[O-])cc3)C(=O)N(C3CC3)c3cc(CO)ccc3[C@H]2N1CC12CC3CC(CC(C3)C1)C2	composite z-score	-0.178
COC(=O)[C@@]1(Cc2ccc(OC)cc2)[C@H]2c3cc(C(=O)N(C)C)n(Cc4ccc(OC(F)(F)F)cc4)c3C[C@H]2CN1C(=O)c1ccccc1	composite z-score	-0.223
NCCCCCNC(=O)[C@@H]1C[C@@H]2C(=O)N[C@@H](CCCCN)C(=O)N2[C@@H]1c1ccc(O)cc1	composite z-score	-0.0113
COCCCNC(=O)[C@@]1(CCC(=O)OC(C)(C)C)N=C(c2ccc(OCCCO)cc2)O[C@H]1c1ccccc1N=[N+]=[N-]	composite z-score	0.573
Cn1cccc1C(O)C1C=CC2C(=O)N(c3ccccc3)C(=O)C2N1Nc1ccccc1 (stereo unspecified)	composite z-score	0.402
CCCCC(CC)C(O)C1C=CC2C(=O)N(c3ccccc3)C(=O)C2N1Nc1ccc(C#N)cc1 (stereo unspecified)	composite z-score	0.648
CCCCC[C@H]1OC[C@@]23C=C(Br)[C@@H](CC12)[C@@]1(CO1)C3=O (stereo partly specified)	composite z-score	-0.233
COc1cc(NN2C(C(O)c3ccco3)C=CC3C(=O)N(C)C(=O)C32)cc(OC)c1OC (stereo unspecified)	composite z-score	0.259
